assay_remarks: chemical genetic growth profiling, strain panel (AID 1159580);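 also: tested at 20 µM; growth read once vehicle control cultures reached saturation at 30 °C; 1 = growth at the plate median or of vehicle wells; lower values mean less growth of the strain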
condition_summary: S. cerevisiae deletion strains, growth OD, locus YNL067W, strain RPL9B, stronger effect = lower value
Out of some 5,500 compounds screened, about 2,000 (36%) were called active. Roughly 18% stayed inconclusive and do not appear here. The list shows a part of the results.
measured_quantity: normalized growth

molecule: COc1c(N2CCNC(C)C2)c(F)cc2c(=O)c(C(=O)O)cn(C3CC3)c12 (stereo not drawn)
result: 1
//
molecule: C#CCN(C)Cc1ccccc1
result: 0.99
//
molecule: CC(=O)Oc1cc(OC(C)=O)c2c(c1)O[C@H](c1ccc(OC(C)=O)c(OC(C)=O)c1)[C@@H](OC(C)=O)C2
result: 1
//
molecule: COc1ccc(OC)c(C(O)CNC(=O)CN)c1 (stereo not drawn)
result: 0.971
//
molecule: C/C=C(\C)C(=O)O[C@H]1C[C@@H](OC(C)=O)[C@@]2(C(=O)OC)CO[C@@H]3C2[C@]12CO[C@](O)(C(=O)OC)[C@H]2[C@](C)(C12O[C@@]1(C)[C@H]1C[C@@H]2OC2OC=C[C@@]21O)[C@@H]3O (stereo partly drawn)
result: 0.979
//
molecule: COC(=O)CC1C2(C)CC34OC5(C)OC6(C7/C(=C(/O)C(C)C)C(=O)OC(c8ccoc8)C7(C)C(OC(=O)C(C)C)C(OC)C6(O5)C13C)C(OC)C4(OC)C2OC(C)=O (stereo not drawn)
result: 1
//
molecule: C=C[C@@](C)(O)CCC1C(=C)CCC2[C@@](C)(CO)CCC[C@]12C (stereo partly drawn)
result: 0.979
//
molecule: C[C@H]1COc2c(N3CCN(C)CC3)c(F)cc3c(=O)c(C(=O)O)cn1c23
result: 1
//
molecule: COC(=O)C[C@H]1C2(C)CC34OC5(C)O[C@@]6([C@H](OC)C(OC(=O)C(C)C)[C@]7(C)C(/C(=C(/OC)C(C)C)C(=O)O[C@H]7c7ccoc7)[C@@]6(O5)[C@H](OC)[C@@]3(OC)C2OC(C)=O)[C@]14C (stereo partly drawn)
result: 1.01
//
molecule: C=C[C@@](C)(O)CCC1C(=C)C[C@H](O)C2C(C)(C)CCCC12C (stereo partly drawn)
result: 0.996
//
molecule: NCCCS(=O)(=O)O
result: 1.01
//
molecule: N[C@@H](Cc1ccc(N(CCCl)CCCl)cc1)C(=O)O
result: 0.984
//
molecule: COC(=O)C[C@H]1C2(C)CC34OC5(C)O[C@@]6([C@H](OC(C)=O)C(OC(C)=O)[C@]7(C)C(/C(=C(/O)C(C)C)C(=O)O[C@H]7c7ccoc7)[C@@]6(O5)[C@H](OC(C)=O)[C@@]3(O)C2OC(=O)C(C)C)[C@]14C (stereo partly drawn)
result: 1.02
//
molecule: CCn1cc(C(=O)O)c(=O)c2cc(F)c(N3CCNCC3)nc21
result: 1
//
molecule: O=C(Oc1cc(OC(=O)c2ccccc2)c2c(c1)O[C@H](c1ccc(OC(=O)c3ccccc3)c(OC(=O)c3ccccc3)c1)[C@@H](OC(=O)c1ccccc1)C2)c1ccccc1
result: 0.984
//
molecule: COC(=O)/C=C/C(C)=C/C=C/C(C)=C/C=C/C=C(C)/C=C/C=C(C)/C=C/C(=O)O
result: 1.02
//
molecule: COc1cc(OC)c2c(c1)O[C@H](c1cc(OC)c(OC)c(OC)c1)[C@H](OC(=O)c1cc(OC)c(OC)c(OC)c1)C2
result: 1.01
//
molecule: COc1ccc2c(c1)OC1(O)COc3cc(OC)c(OC)cc3C1=C2 (stereo not drawn)
result: 0.998

---

Listed below: normalized growth values for each entry.
assay_remarks: chemical genetic growth profiling, strain panel (AID 1159580);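 also: tested at 20 µM; growth read once vehicle control cultures reached saturation at 30 °C; 1 = growth at the plate median or of vehicle wells; lower values mean less growth of the strain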
condition_summary: S. cerevisiae deletion strains, growth OD, locus YDR069C, strain doa4, stronger effect = lower value
The campaign covered roughly 5,500 compounds. About 2,000 (36%) were called active. Roughly 18% stayed inconclusive and do not appear here. The list shows a part of the results.

compound: CN(C)CCN(Cc1cccs1)c1ccccn1
normalized growth: 1
--
compound: CCCCC/C=C/CCC(=O)N[C@H]1[C@H](Oc2c3cc4cc2Oc2ccc(cc2Cl)[C@@H](O[C@@H]2O[C@H](CO)[C@@H](O)[C@H](O)[C@H]2NC(C)=O)[C@@H]2NC(=O)[C@H](NC(=O)[C@@H]4NC(=O)[C@H]4NC(=O)C(Cc5ccc(c(Cl)c5)O3)NC(=O)[C@H](N)c3ccc(O)c(c3)Oc3cc(O)cc4c3)c3ccc(O)c(c3)-c3c(OC4O[C@H](CO)[C@@H](O)[C@H](O)[C@@H]4O)cc(O)cc3[C@@H](C(=O)O)NC2=O)O[C@H](CO)[C@@H](O)[C@@H]1O (stereo partly specified)
normalized growth: 1
--
compound: c1ccc2c(c1)CCCC2C1=NCCN1 (stereo unspecified)
normalized growth: 1
--
compound: C=C[C@@](C)(O)CCC1C(=C)C[C@H](O)C2C(C)(C)CCCC12C (stereo partly specified)
normalized growth: 0.99
--
compound: C#CCCCCCCCCCCCc1ccco1
normalized growth: 0.983
--
compound: C[C@]12CCC(=O)C=C1C=CC1C2CC[C@@]2(C)C1CC[C@@]2(O)CCC(=O)O (stereo partly specified)
normalized growth: 1.01
--
compound: NCCc1cnc[nH]1
normalized growth: 0.993
--
compound: CC#CC1(O)CCC2C3CCC4=CC(=O)CCC4=C3C(c3ccc(N(C)C)cc3)CC21C (stereo unspecified)
normalized growth: 0.994
--
compound: C[C@]12CCC(=O)C=C1C=CC1C2CC[C@@]2(C)C1CC[C@@]21CCC(=O)O1 (stereo partly specified)
normalized growth: 0.984
--
compound: O=C(O)c1cc2cc(F)ccc2[nH]1
normalized growth: 1
--
compound: C=CC[C@]1(O)CCC2C3CCC4=CC(=O)CCC4=C3C=C[C@@]21C (stereo partly specified)
normalized growth: 0.996

---

Listed below: normalized growth values for each entry.
assay_remarks: chemical genetic growth profiling, strain panel (AID 1159580);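 also: tested at 20 µM; growth read once vehicle control cultures reached saturation at 30 °C; 1 = growth at the plate median or of vehicle wells; lower values mean less growth of the strain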
condition_summary: S. cerevisiae deletion strains, growth OD, locus YNL128W, strain TEP1, stronger effect = lower value
About 2,000 (36%) of roughly 5,500 compounds were called active. Roughly 18% stayed inconclusive and do not appear here. Some of the results follow.

compound: CCOC(=O)CNc1ccc(F)cc1
normalized growth: 0.98 (inactive)
--
compound: C[C@@H]1CC(Cl)CC[C@H]1C(=O)OC(C)(C)C (stereo not given in full)
normalized growth: 0.971 (inactive)
--
compound: O=C1CCC(N2C(=O)c3ccccc3C2=O)C(=O)N1 (stereo not given)
normalized growth: 1.02 (inactive)
--
compound: CN1C2CCC1CC(OC(=O)c1c[nH]c3ccccc13)C2 (stereo not given)
normalized growth: 0.995 (inactive)
--
compound: Nc1cc(=O)[nH]c(N)n1
normalized growth: 0.984 (inactive)
--
compound: N=C(N)SCCc1cnc[nH]1
normalized growth: 0.995 (inactive)
--
compound: CN1C2CCC1CC(OC(c1ccccc1)c1ccccc1N)C2 (stereo not given)
normalized growth: 0.993 (inactive)
--
compound: COc1ccc(/C=C2\CC/C(=C\c3ccc(OC)c(OC)c3)C2=O)cc1OC
normalized growth: 0.997 (inactive)
--
compound: NCCC(=O)NCCc1cnc[nH]1
normalized growth: 1.01 (inactive)
--
compound: CCC(C)C(=O)OC1CC2(C)C(c3ccoc3)OC(=O)CC23OC2(C)OC34C(OC(=O)C(C)C)C3(O)C(OC(=O)C5(C)OC5C)C5(C)CC3(O)C(C)(C5C(=O)OC)C14O2 (stereo not given)
normalized growth: 1.01 (inactive)
--
compound: O=C1NCC2(CCN(CCc3ccccc3)CC2)O1
normalized growth: 1.02 (inactive)
--
compound: CNC(=O)O/N=C(\C)SC
normalized growth: 1.01 (inactive)
--
compound: Cc1ccccc1C(OCCN(C)C)c1ccccc1 (stereo not given)
normalized growth: 1 (inactive)
--
compound: Nc1ncnc2c1ncn2C1OC2COP(O)(=S)O[C@@H]2[C@@H]1O (stereo not given in full)
normalized growth: 1.01 (inactive)
--
compound: C[C@H]1COc2c(N3CCN(C)CC3)c(F)cc3c(=O)c(C(=O)O)cn1c23
normalized growth: 0.975 (inactive)

---

Listed below: normalized growth values for each entry.
assay_remarks: chemical genetic growth profiling, strain panel (AID 1159580);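 also: tested at 20 µM; growth read once vehicle control cultures reached saturation at 30 °C; 1 = growth at the plate median or of vehicle wells; lower values mean less growth of the strain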
condition_summary: S. cerevisiae deletion strains, growth OD, locus YHR079C, strain IRE1 (second series), stronger effect = lower value
Hit rate of the full screen: of about 5,500 compounds, about 2,000 (36%) were called active. Not shown: some 18% with an inconclusive outcome. The list shows a part of the results.

compound: COc1ccc(CN(CCN(C)C)c2ccccn2)cc1
normalized growth: 0.987 (inactive)
--
compound: C=C[C@@](C)(O)CCC1C(=C)CCC2[C@@](C)(CO)CCC[C@]12C (stereo not given in full)
normalized growth: 1.05 (inactive)
--
compound: CN1C2CCC1CC(OC(c1ccccc1)c1ccccc1)C2 (stereo not given)
normalized growth: 0.977 (inactive)
--
compound: Oc1cc(O)c2c(c1)OC(c1cc(O)c(O)c(O)c1)C(O)C2c1c(O)cc(O)c2c1OC(c1cc(O)c(O)c(O)c1)C(O)C2c1c(O)cc(O)c2c1OC(c1cc(O)c(O)c(O)c1)C(O)C2 (stereo not given)
normalized growth: 1.04 (inactive)
--
compound: Oc1ccc2c(c1)O[C@H](c1ccc(O)c(O)c1)[C@@H](O)C2
normalized growth: 1 (inactive)
--
compound: CN1C2CCC1CC(OC(c1ccccc1)c1ccccc1N)C2 (stereo not given)
normalized growth: 1.01 (inactive)
--
compound: CC(=O)O[C@H]1C[C@@H](OC(C)=O)C(C)(C)C2CC(=O)[C@]3(C)C(CC[C@@]4(C)[C@H](C(=O)O)OC(=O)C5OC543)[C@]21C (stereo not given in full)
normalized growth: 0.983 (inactive)
--
compound: COC(=O)/C=C/C(C)=C/C=C/C(C)=C/C=C/C=C(C)/C=C/C=C(C)/C=C/C(=O)O
normalized growth: 0.986 (inactive)
--
compound: O=C(O[C@@H]1Cc2c(O)cc(O)cc2O[C@@H]1c1ccc(O)c(O)c1)c1cc(O)c(O)c(O)c1
normalized growth: 1.02 (inactive)
--
compound: O=C(Oc1cc(OC(=O)c2ccccc2)c2c(c1)O[C@H](c1ccc(OC(=O)c3ccccc3)c(OC(=O)c3ccccc3)c1)[C@@H](OC(=O)c1ccccc1)C2)c1ccccc1
normalized growth: 1.05 (inactive)
--
compound: COc1ccc([C@H]2Oc3c(I)c(OC)cc(OC)c3C[C@@H]2O)cc1OC
normalized growth: 1.01 (inactive)
--
compound: COc1ccc(OC)c(C(O)CNC(=O)CN)c1 (stereo not given)
normalized growth: 0.991 (inactive)
--
compound: CC(=O)Oc1cc(OC(C)=O)c2c(c1)O[C@H](c1ccc(OC(C)=O)c(OC(C)=O)c1)[C@H](OC(C)=O)C2
normalized growth: 1.03 (inactive)
--
compound: CCC(C)C(=O)O[C@@H]1C[C@@]2(C)[C@H](c3ccoc3)OC(=O)CC23OC2(C)OC34[C@H](OC(=O)C(C)C)[C@@]3(O)[C@@H](OC(=O)C5(C)OC5C)[C@@]5(C)C[C@]3(O)[C@@](C)([C@H]5CC(=O)OC)C14O2 (stereo not given in full)
normalized growth: 1 (inactive)
--
compound: c1ccc2c(c1)sc1ccccc12
normalized growth: 0.957 (inactive)
